# System: HeLa cells
# test name: Anti-clonogenic activity on HeLa cells (plating efficiency assay / live cell imaging)
# Format: cell-based, human
# run parameters: Homo sapiens; HeLa, serial twofold dilutions (Luteolin from 50 μM, Galangin from 100 μM), live cell image analysis, FIG. 3; read-out: CID50 (50% clonal inhibitory dose)
quantity kind: pIC50
Scale for pIC50: -log10 of concentration given in mol/L; no unit attached.

# pIC50 of O=c1cc(-c2ccc(O)c(O)c2)oc2cc(O)cc(O)c12 = 5.20

* * *

# Tested on: HPV transformed cells
# test name: Anti-clonal effect on HPV transformed cells (cell line not stated)
# Type: cell-based, human
# run parameters: Homo sapiens; isolated compound; minimal concentration reducing 50% of CFU of treated versus control; read-out: CID50 (50% clonal inhibitory dose), isolated polyphenols
Listing: IC50 of selected compounds
The figure you give is taken to be in µM; do not add the unit.

Examples from the recorded data:
O=c1c(O)c(-c2ccccc2)oc2cc(O)cc(O)c12 :: 25
O=c1cc(-c2ccccc2)oc2cc(O)cc(O)c12 :: 25
O=c1cc(-c2ccc(O)cc2)oc2cc(O)cc(O)c12 :: 25
O=c1c(O)c(-c2ccc(O)cc2)oc2cc(O)cc(O)c12 :: 25

# IC50 of O=c1cc(-c2ccc(O)c(O)c2)oc2cc(O)cc(O)c12 = 6.25

# IC50 of O=c1c(O)c(-c2ccc(O)c(O)c2)oc2cc(O)cc(O)c12 = 50
